Give measured SPOT peptide array binding signal intensity for each item. Keep answers brief.
- testSystem: SpPex13
- runDescription: SPOT peptide array binding signal intensity (averaged, normalized) (arbitrary units (background-subtracted, floor 0; scale differs between SH3 domains)); higher = stronger binding of the SH3 domain to the peptide
Numbers only.

Past entries and their recorded results:
1) RLSRLLLSLPPESFT : 16
2) SKIRPTPRKPSRMAT : 30
3) VNIPSPSSSPPPIPK : 1.5

Could you tell me SPOT peptide array binding signal intensity for each of these binders? They are listed below.
1. ITHRLRISIPGITGR
2. NIKVLLNPKLGKPVK
3. AATTSTPPLPRRRAT

// result
124
13
3

Origin of measurements: the supplement of paper PMC4466140
